- target.system: T1, full length CrkII, monomer (CrkII^FL monomer) (human, UniProt P46108-1 1-304, biotin (EZ-Link NHS-PEG4-Biotin, 1:1 molar ratio) where it was immobilised (a1))
- T1 construct: full length human CrkII, printed as UniProt P46108-1, residues 1-330
- T1 sequence (P46108 whole entry, the tested form may be a part): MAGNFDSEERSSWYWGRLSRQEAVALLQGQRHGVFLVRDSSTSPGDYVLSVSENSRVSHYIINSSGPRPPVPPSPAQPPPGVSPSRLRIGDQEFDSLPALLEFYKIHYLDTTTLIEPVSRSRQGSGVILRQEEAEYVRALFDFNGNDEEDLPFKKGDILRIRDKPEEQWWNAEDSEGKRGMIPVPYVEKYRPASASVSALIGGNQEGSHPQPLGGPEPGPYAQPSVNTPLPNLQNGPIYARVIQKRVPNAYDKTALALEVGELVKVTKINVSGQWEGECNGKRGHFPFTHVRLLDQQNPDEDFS
- test.details: SPR; biotinylated adapter proteins captured with a biotin CAPture kit, pY peptides as analytes; Biacore 8K+, 20 °C, HBS-TP (20 mM HEPES pH 7.4, 150 mM NaCl, 1 mM TCEP, 0.005% Tween-P20) with 2% DMSO; 1 M NaCl regeneration; steady state, 1:1 model
- measurement.parameters: both partners purified
Non-standard residues stand in square brackets, D forms with d. pY = N[C@@H](Cc1ccc(OP(=O)(O)O)cc1)C(=O)O
readout: Kd (µM)

binder: Ac-T[pY]SNLGQ-NH2 (also called consensus pY peptide; SH2-pY peptide; source: synthetic peptide, bought: Mimotopes (95% purity)) [PEAK SH2-pY consensus peptide (Ac-T(pY)SNLGQ-NH2)]
units: µM
observed: 14.5
//
binder: Ac-T[pY]SNLGQSRAAMIPPK-NH2 (human PEAK1 residues 1106-1121; source: synthetic peptide, bought: Mimotopes (95% purity)) [PEAK1 1106-1121-pY1107 peptide (Ac-T(pY)SNLGQSRAAMIPPK-NH2)]
units: µM
observed: 3.5
//
binder: Ac-T[pY]SNLGQIRAHLLPSK-NH2 (SMILES CC[C@H](C)[C@H](NC(=O)[C@H](CCC(N)=O)NC(=O)CNC(=O)[C@H](CC(C)C)NC(=O)[C@H](CC(N)=O)NC(=O)[C@H](CO)NC(=O)[C@H](Cc1ccc(OP(=O)(O)O)cc1)NC(=O)[C@@H](NC(C)=O)[C@@H](C)O)C(=O)N[C@@H](CCCNC(=N)N)C(=O)N[C@@H](C)C(=O)N[C@@H](Cc1c[nH]cn1)C(=O)N[C@@H](CC(C)C)C(=O)N[C@@H](CC(C)C)C(=O)N1CCC[C@H]1C(=O)N[C@@H](CO)C(=O)N[C@@H](CCCCN)C(N)=O, source: synthetic peptide, bought: Mimotopes (95% purity)) [PEAK3 23-38-pY24 peptide (Ac-T(pY)SNLGQIRAHLLPSK-NH2)]
units: µM
observed: 6.8
